B1: PRKX (parent)
chain: KLLVVDRTRRLGNMKNGANDVKHH

variants of: B1; assay: protein stability index of a GFP-peptide fusion (GPS, HEK-293T) (PSI 1-6); higher = more stable; details: c terminus: a fixed tail appended;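 note: lentivirally expressed fusions sorted by FACS into six bins by GFP to DsRed ratio, PSI derived from sequencing read proportions per bin multiplied by bin number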
So basically: protein stability index at 3 or higher? That is met. Lower than 3? That is not met.

Is it the case that "N13W" has protein stability index reaching or exceeding 3? not met

Could you tell me if the measured protein stability index of "V4N" reaches 3 or more? met

Is protein stability index at least 3? Consider "K1P" met

Test whether the variant "V4R" records protein stability index of 3 or higher. not met

I'd appreciate it if you could say whether "M14G" has protein stability index at least equal to 3. met

Reported protein stability index reaches at least 3 for "L3K" ? met

# check: protein stability index of "N13H" is greater than or equal to 3 not met

Assess whether reported protein stability index for "R9V" sits at 3 or higher. not met

Can "A18I" be said to have protein stability index at or above 3? not met

Has "H23S" a recorded protein stability index greater than or equal to 3? not met

Is reported protein stability index greater than or equal to 3 here: "L11P" met

Test whether the variant "N19V" records protein stability index of 3 or higher. not met

Hi team, for "R9E" , is the recorded protein stability index at or above 3? met

Check this variant for protein stability index at or above 3: "G12E" met

Check this variant for protein stability index at or above 3: "N16D" not met

Would you say "V5Y" shows protein stability index at minimum 3? not met

Does the reported protein stability index for "H23D" fall at or above the 3 mark? met

Check this variant for protein stability index at or above 3: "G12D" met

Determine whether this variant has protein stability index no lower than 3: "V21E" met

Determine whether this variant has protein stability index no lower than 3: "N13M" not met

In plain terms: is recorded protein stability index at least 3 for "D20F" ? not met

protein stability index >= 3 for "L2P" ? met

Textbook exercise: given the entry "K22D" , state whether its protein stability index is greater than or equal to 3. met

Given the entry "T8I" , answer whether its protein stability index meets or surpasses 3. not met

Kindly determine if protein stability index recorded for "N16C" is above or exactly 3. not met

Does protein stability index meet or surpass 3 for "H24V" ? not met

Identify whether the reported protein stability index of the following variant is 3 or greater: "R7C" not met

Threshold query (protein stability index >= 3) on "K22Y" not met

Entry "R10S" : is its protein stability index no less than 3? met

Exam item: decide whether the reported protein stability index for "L3I" is at least 3. met

Please check the record "D6Y" and state if its protein stability index is at or above 3. not met

Tell me whether protein stability index is at least 3 here: "N13L" not met

Reported protein stability index reaches at least 3 for "K15E" ? met

Decide: protein stability index of "N16F" >= 3? not met

Please tell me: is the variant "G17T" at or over 3 in terms of protein stability index? not met

Check if protein stability index >= 3 (inclusive). Item: "R9N" not met

Is reported protein stability index greater than or equal to 3 here: "V4K" not met

Threshold query (protein stability index >= 3) on "R10M" not met

Exam item: decide whether the reported protein stability index for "V5W" is at least 3. not met

Evaluate "K22E" : protein stability index at minimum 3? met

Does protein stability index meet or surpass 3 for "V5R" ? met

Please indicate if the recorded protein stability index for "H24R" meets or exceeds 3. met

Evaluate "V4D" : protein stability index at minimum 3? met

Is reported protein stability index greater than or equal to 3 here: "L2V" met

Hello, I need to know if "D20C" has measured protein stability index not below 3. Thanks! not met

Does the variant "K1N" have recorded protein stability index that is 3 or more? met

Textbook exercise: given the entry "R9L" , state whether its protein stability index is greater than or equal to 3. not met

Hi team, for "K1Q" , is the recorded protein stability index at or above 3? met

// inclusive: protein stability index at least 3? input: "N13I" not met

Confirm if protein stability index reported for the variant "L11W" is 3 or above. not met

Can "N19Q" be said to have protein stability index at or above 3? not met

Can "V21H" be said to have protein stability index at or above 3? met

Item "V4S" with protein stability index of 3 or above? met

Does protein stability index meet or surpass 3 for "V4F" ? not met

Would you say "K1G" shows protein stability index at minimum 3? met

# bool: protein stability index of "L3Q" >= 3 met

Is it the case that "N19L" has protein stability index reaching or exceeding 3? not met

Does the reported protein stability index for "L3E" fall at or above the 3 mark? met

Determine whether this variant has protein stability index no lower than 3: "L11R" met

Does protein stability index meet or surpass 3 for "R10F" ? not met

Hello, I need to know if "G17E" has measured protein stability index not below 3. Thanks! met

Could you verify whether the entry "H24W" shows protein stability index of no less than 3? not met

Does the variant "K15A" have recorded protein stability index that is 3 or more? met

Please check the record "L3M" and state if its protein stability index is at or above 3. met

Item "N16M" with protein stability index of 3 or above? not met

Check if protein stability index >= 3 (inclusive). Item: "H24Y" not met

Decide: is the reported value of protein stability index for "D20L" equal to or greater than 3? not met

API: above_or_equal(metric=protein stability index, cutoff=3) for item "N16V" not met
